Experiment: collision cross section of unmodified peptide (TIMS, N2, iRT-aligned); higher = larger / more extended gas-phase ion
Conditions: charge state: 3
Property Name: collision cross section (Å²)
# output: bare number, implied unit Å²

Summary for this substance, GRGGPGPAQR : collision cross section is 428.92

====

Assay: collision cross section of unmodified peptide (TIMS, N2, iRT-aligned); higher = larger / more extended gas-phase ion
Conditions: charge state: 2
Would you please tag the item label 1 when its collision cross section is 400 Å² or above, and label 0 when it is below?

• GEPGQGLRGLQGPPGK = label 1
• IVNVSLADLR = label 0
• SYVDTGGVSR = label 0
• GPPGPPGR = label 0
• FGVEAFSDCLR = label 0
• LLRGVGGSHGR = label 0
• ATAVVDGAFK = label 0
• GQDSTIAASEQQVAAR = label 1
• GAPGPQGPPGPPGK = label 0
• TGGTQTDLFTCGKCK = label 1

In plain terms: is recorded collision cross section at least 400 Å² for IVEKYGYTHLSAGELLR ?
label 1

In plain terms: is recorded collision cross section at least 400 Å² for DYSAPVNFISAGLKK ?
label 1

====

Test: collision cross section of modified peptide (TIMS, N2, iRT-aligned); higher = larger / more extended gas-phase ion
Conditions: charge state: 3; modification: Glutarylation
Would you please tag the item condition met when its collision cross section is 500 Å² or above, and condition not met when it is below?

- PASGAGAGAGAGKR [_PASGAGAGAGAGK(Gluratylation)R_]: condition not met
- SLGEPAAGEGSAKR [_SLGEPAAGEGSAK(Gluratylation)R_]: condition not met
- VGVEVPDVNIEGPEGKLK [_VGVEVPDVNIEGPEGK(Gluratylation)LK_]: condition met
- SLEEEGAAHSGKR [_SLEEEGAAHSGK(Gluratylation)R_]: condition not met
- VPTTEKPTVTVNFR [_VPTTEK(Gluratylation)PTVTVNFR_]: condition met
- DASTLQSQKAEGTGDAK [_DASTLQSQK(Gluratylation)AEGTGDAK_]: condition met
- LDHLAEKFR [_LDHLAEK(Gluratylation)FR_]: condition not met
- AAINQKLIETGER [_AAINQK(Gluratylation)LIETGER_]: condition not met

In plain terms: is recorded collision cross section at least 500 Å² for FDDTNPEKEEAK [_FDDTNPEK(Gluratylation)EEAK_] ?
condition not met

In plain terms: is recorded collision cross section at least 500 Å² for LTEKELAEAASK [_LTEK(Gluratylation)ELAEAASK_] ?
condition not met

In plain terms: is recorded collision cross section at least 500 Å² for IVFSGNLFQHQEDSKK [_IVFSGNLFQHQEDSK(Gluratylation)K_] ?
condition met

====

Assay: collision cross section of modified peptide (TIMS, N2, iRT-aligned); higher = larger / more extended gas-phase ion
Conditions: charge state: 2; modification: Malonyl
The sequences listed here are annotated with their collision cross section.
# output: bare number, implied unit Å²

For orientation, consider the following solved cases.
• LQAAYAGDKADDIQK [_LQAAYAGDK(Malonyl)ADDIQK_] = 436.07
• GFCFITYTDEEPVKK [_GFCFITYTDEEPVK(Malonyl)K_] = 452.98
• VGVEVPDVNIEGPEGKLK [_VGVEVPDVNIEGPEGK(Malonyl)LK_] = 458.25
• VNVEAPDVNLEGLGGKLK [_VNVEAPDVNLEGLGGK(Malonyl)LK_] = 463.09

Summary for this sequence, LTSLNVKYNNDK [_LTSLNVK(Malonyl)YNNDK_] : collision cross section is 402.04

Summary for this sequence, LGNDFHTNKR [_LGNDFHTNK(Malonyl)R_] : collision cross section is 378.38

====

Test: collision cross section of modified peptide (TIMS, N2, iRT-aligned); higher = larger / more extended gas-phase ion
Conditions: charge state: 2; modification: Trimethyl (K)
Property Name: collision cross section (Å²)
# output: bare number, implied unit Å²

For orientation, consider the following solved cases.
* PASGAGAGAGAGKR [_PASGAGAGAGAGK(Trimethyl (K))R_] | 392.96
* IQQELQTAKK [_IQQELQTAK(Trimethyl (K))K_] | 374.97
* VQGGALEDSQLVAGVAFKK [_VQGGALEDSQLVAGVAFK(Trimethyl (K))K_] | 515.46

Summary for this sequence, DDSFLGKLGGTLAR [_DDSFLGK(Trimethyl (K))LGGTLAR_] : collision cross section is 427.63

Summary for this sequence, FVDSKVGEFSGANK [_FVDSK(Trimethyl (K))VGEFSGANK_] : collision cross section is 432.92

Summary for this sequence, IINEPTAAAIAYGLDKK [_IINEPTAAAIAYGLDK(Trimethyl (K))K_] : collision cross section is 500.2

====

Test: collision cross section of modified peptide (TIMS, N2, iRT-aligned); higher = larger / more extended gas-phase ion
Conditions: charge state: 2; modification: Glutarylation
Would you please tag the item condition met when its collision cross section is 400 Å² or above, and condition not met when it is below?

* ASNAAVKLAESK [_ASNAAVK(Gluratylation)LAESK_] | condition not met
* FVDSKVGEFSGANK [_FVDSK(Gluratylation)VGEFSGANK_] | condition met
* IVSGKDYNVTANSK [_IVSGK(Gluratylation)DYNVTANSK_] | condition met
* FGTINIVHPKLGSYTK [_FGTINIVHPK(Gluratylation)LGSYTK_] | condition met
* SDSGKPYYYNSQTK [_SDSGK(Gluratylation)PYYYNSQTK_] | condition met
* LFVGGIKEDTEEHHLR [_LFVGGIK(Gluratylation)EDTEEHHLR_] | condition met
* TTEETSKPK [_TTEETSK(Gluratylation)PK_] | condition not met
* LQEKVESAQSEQK [_LQEK(Gluratylation)VESAQSEQK_] | condition met

Kindly review the next sequence as well.
In plain terms: is recorded collision cross section at least 400 Å² for SPDEAYAIAKK [_SPDEAYAIAK(Gluratylation)K_] ?
condition not met

====

Assay: collision cross section of modified peptide (TIMS, N2, iRT-aligned); higher = larger / more extended gas-phase ion
Conditions: charge state: 2; modification: Trimethyl (K)
Property Name: collision cross section (Å²)
# output: bare number, implied unit Å²

• VGLQVVAVKAPGFGDNR [_VGLQVVAVK(Trimethyl (K))APGFGDNR_] = 473
• VDIDVPDVNIEGPDAKLK [_VDIDVPDVNIEGPDAK(Trimethyl (K))LK_] = 470.5
• KFGVLSDNFK [_K(Trimethyl (K))FGVLSDNFK_] = 372.9

Summary for this sequence, ASDTSSETVFGKR [_ASDTSSETVFGK(Trimethyl (K))R_] : collision cross section is 414.52

Summary for this sequence, VNVEAPDVNLEGLGGKLK [_VNVEAPDVNLEGLGGK(Trimethyl (K))LK_] : collision cross section is 469.62

Summary for this sequence, TLDEILQEKK [_TLDEILQEK(Trimethyl (K))K_] : collision cross section is 388.3

Summary for this sequence, SLKLNTAEDAK [_SLK(Trimethyl (K))LNTAEDAK_] : collision cross section is 378.59

Summary for this sequence, STGLELETPSLVPVKK [_STGLELETPSLVPVK(Trimethyl (K))K_] : collision cross section is 461.73

Summary for this sequence, DASTLQSQKAEGTGDAK [_DASTLQSQK(Trimethyl (K))AEGTGDAK_] : collision cross section is 445.31

Summary for this sequence, LQDVSGQLSSSKK [_LQDVSGQLSSSK(Trimethyl (K))K_] : collision cross section is 417.06

====

The sequences listed here are annotated with their collision cross section.
Assay: collision cross section of modified peptide (TIMS, N2, iRT-aligned); higher = larger / more extended gas-phase ion
Conditions: charge state: 2; modification: Formyl
# output: bare number, implied unit Å²

* ASNAAVKLAESK [_ASNAAVK(Formyl)LAESK_] | 365.07
* LLFSNTAAQKLR [_LLFSNTAAQK(Formyl)LR_] | 395.38
* ISALQGKLSK [_ISALQGK(Formyl)LSK_] | 348.45
* SKHLQEQLNELK [_SK(Formyl)HLQEQLNELK_] | 412.77

Query sequence follows.
Summary for this sequence, VETTVTSLKTK [_VETTVTSLK(Formyl)TK_] : collision cross section is 373.38

====

Assay: collision cross section of unmodified peptide (TIMS, N2, iRT-aligned); higher = larger / more extended gas-phase ion
Conditions: charge state: 3
The sequences listed here are annotated with their collision cross section.
# output: bare number, implied unit Å²

- IQQELQTAKK: 429.26
- GERGVPGER: 410.66
- HSPTLPEPGGLRLELPLSR: 583.19
- DLTTAGAVTQCYR: 489.14
- SNEEGSEEKGPEVR: 477.66
- VLTANSNPSSPSAAKR: 517.98
- YIDNQVVSTKGER: 500.48
- FSHSVQNSERGK: 464.33
- TGGTQTDLFTCGKCK: 479.49
- SGGYGGSRDYYSSR: 474.66

Summary for this sequence, PSVSTKLISK : collision cross section is 423.25

Summary for this sequence, THLGEALAPLSK : collision cross section is 462.22

Summary for this sequence, SRFYSGFNSR : collision cross section is 436.82

Summary for this sequence, GGGDRGGFGPGK : collision cross section is 414.71
